- Test system: CAKI-1
- Protocol notes: NCI tumour cell line growth inhibition, 48 h
The source made the active and inactive calls. Rule as the data show it: active = GI50 up to about 1.1 µM and inactive = higher.
Measurement type: GI50

O=C1CC(C(O)CO)CC(=O)N1 (stereo unspecified): > 100 µM (inactive)
Cc1ccc(NC(=O)SCCC(=O)O)cc1NC(=O)SCCC(=O)O: > 100 µM (inactive)
COc1cc2c(cc1OC)C(Cc1ccccc1CCCl)=NCC2: 76.6 µM (inactive)
Cn1c(=O)c2nc(-c3ccc(Cl)cc3)oc2n(C)c1=O: > 100 µM (inactive)
Cc1ccc(/N=N/c2c(O)c(C(=O)O)cc3ccccc23)c(S(=O)(=O)O)c1: > 100 µM (inactive)

Task: Provide one value: measured GI50 of CC(C)C(O)(C(=O)OCN1C(=O)C2C3C=CC(C2C1=O)C1C2C(=O)N(COC(=O)C(O)(C(C)C)C(C)O)C(=O)C2C31)C(C)O (stereo unspecified)
Output: > 100 µM (inactive)

Task: Please indicate GI50 recorded for Cc1ccc(Cc2n[nH]c(=O)[nH]2)cc1
Output: > 100 µM (inactive)

Task: Quickly give me recorded GI50 for CSc1ccc(OCC2OC2O)cc1 (stereo unspecified)
Output: > 50.9 µM (inactive)

Task: Specify GI50 for OCC1OC(c2nc(C3=NCCCN3)cs2)C(O)C1O (stereo unspecified) and stop.
Output: > 100 µM (inactive)

Task: Identify GI50 associated with the molecule CCOC(=O)/C(C(=O)Nc1ccc(Cl)cc1)=C(/N)N1CCOCC1
Output: > 100 µM (inactive)

Task: Provide measured GI50 value, entry: Brc1ccc(/N=N/N2CCCCC2)cc1
Output: 88.1 µM (inactive)
